Cited source for all entries: ChEMBL document CHEMBL4052617

- System: Pseudomonas aeruginosa
- method description: Antibacterial activity against multidrug-resistant Pseudomonas aeruginosa ATCC BAA2108 after 18 hrs by Mueller-Hinton broth microdilution method
- Type: functional
- condition parameters: ATCC BAA2108, 18 h
attribute measured: MIC (µg/mL)

item smiles | value comparator | result number
COc1ccccc1Nc1c2ccccc2[n+](C)c2c1oc1ccccc12.[I-] | > | 64
Cc1cc(F)ccc1Nc1c2ccccc2[n+](C)c2c1oc1ccccc12.[I-] | > | 64
CCOc1ccc(Nc2c3ccccc3[n+](C)c3c2[nH]c2ccccc23)cc1.[I-] | = | 48
Cc1cc(C)cc(Nc2c3ccccc3[n+](C)c3c2oc2ccccc23)c1.[I-] | > | 64
C[n+]1c2ccccc2c(Nc2ccc(Cl)cc2)c2oc3ccccc3c21.[I-] | > | 64
C[n+]1c2ccccc2c(Nc2ccc(OC(F)(F)F)cc2)c2oc3ccccc3c21.[I-] | = | 64
Cc1ccc(Nc2c3ccccc3[n+](C)c3c2oc2ccccc23)cc1.[I-] | > | 64
C[n+]1c2ccccc2c(Nc2ccc(F)cc2)c2[nH]c3ccccc3c21.[I-] | = | 64
Cc1ccc(Nc2c3ccccc3[n+](C)c3c2[nH]c2ccccc23)cc1.[I-] | = | 64
Cc1ccccc1Nc1c2ccccc2[n+](C)c2c1oc1ccccc12.[I-] | > | 64
